Some compounds, each annotated with its measured pIC50.
target_under_test: Cholinesterase (Equus caballus)
Sequence (P81908 whole entry): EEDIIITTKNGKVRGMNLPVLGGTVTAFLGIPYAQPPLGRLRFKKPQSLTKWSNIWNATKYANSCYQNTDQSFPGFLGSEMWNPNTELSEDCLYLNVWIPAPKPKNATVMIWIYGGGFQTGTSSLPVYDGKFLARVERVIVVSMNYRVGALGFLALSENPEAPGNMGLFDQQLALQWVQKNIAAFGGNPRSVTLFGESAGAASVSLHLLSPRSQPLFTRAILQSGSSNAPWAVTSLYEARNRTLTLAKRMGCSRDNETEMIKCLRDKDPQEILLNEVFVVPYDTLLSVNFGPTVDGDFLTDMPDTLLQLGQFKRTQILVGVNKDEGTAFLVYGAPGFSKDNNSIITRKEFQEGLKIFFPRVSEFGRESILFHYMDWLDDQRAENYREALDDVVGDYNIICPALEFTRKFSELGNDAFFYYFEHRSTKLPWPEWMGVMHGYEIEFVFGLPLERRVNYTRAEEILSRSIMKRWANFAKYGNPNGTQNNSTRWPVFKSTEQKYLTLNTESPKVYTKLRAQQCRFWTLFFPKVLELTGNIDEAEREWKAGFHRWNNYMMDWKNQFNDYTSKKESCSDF
protocol: Inhibition of horse BChE by Ellman's method
condition_set: read-out: IC50
pIC50: −log10 of the molar value. Where a name gives a salt, the structure may show the parent alone.

{"compound": "COc1cc2c3cc1Oc1c(OC)c(OC)cc4c1[C@@H](Cc1ccc(OC(=O)c5ccc([N+](=O)[O-])cc5)c(c1)Oc1ccc(cc1)C[C@@H]3N(C)CC2)N(C)CC4", "pIC50": 5.38}
{"compound": "C=C[C@H]1C[N@@]2CC[C@H]1C[C@@H]2[C@@H](O)c1ccnc2ccc(OC)cc12", "pIC50": 5.13}
{"compound": "Cl.Cl.c1ccc2c3c([nH]c2c1)[C@H]1[C@H]2CC[C@H]([C@@H]4CCCN[C@@H]42)N1CC3", "pIC50": 4.97}
{"compound": "COC(=O)[C@H]1[C@H]2C[C@H]3c4[nH]c5ccccc5c4CCN3C[C@H]2CC[C@@H]1O.Cl [RAUWOLSCINE HYDROCHLORIDE]", "pIC50": 5.08}
{"compound": "OC1c2ccccc2N=C2CCCN21 (stereo not drawn)", "pIC50": 4.94}
{"compound": "Cc1c([C@H](C)[C@@H]2NC[C@@H](C)C[C@H]2O)ccc2c1C[C@H]1[C@H]2CC=C2C[C@@H](O)CC[C@@]21C", "pIC50": 4.97}
{"compound": "COc1ccc2c(c[n+](C)c3c4cc5c(cc4ccc23)OCO5)c1OC [CHELERYTHRINE CHLORIDE]", "pIC50": 5.20}
{"compound": "CC[C@H]1CN2CCc3c([nH]c4ccccc34)[C@H]2C[C@@H]1/C(=C\\OC)C(=O)OC", "pIC50": 5.30}
{"compound": "COc1cc2c3cc1Oc1c(OO)c(OC)cc4c1[C@H](Cc1ccc(cc1)Oc1cc(ccc1O)C[C@H]3N(C)CC2)N(C)CC4.O=S(=O)(O)O [OXYACANTHINE SULFATE]", "pIC50": 5.39}
{"compound": "C[C@@H]1CC[C@H]2[C@H](C)[C@H]3CC[C@@]4(O)[C@@H]5CC(=O)[C@H]6CC(=O)CC[C@]6(C)[C@H]5C[C@H]4[C@@H]3CN2C1", "pIC50": 5.43}
{"compound": "c1ccc2c(c1)CN1CCCC1=N2 [DESOXYPEGANINE HYDROCHLORIDE HYDRATE]", "pIC50": 4.92}
{"compound": "CCC1=C[C@@H]2CN3CCc4c([nH]c5ccccc45)[C@@](C(=O)OC)(C2)[C@@H]13", "pIC50": 5.29}
{"compound": "O[C@H]1CCN2Cc3ccccc3N=C12", "pIC50": 5.60}
